System: rabbit iliac artery rings
Test: EDHF-type relaxation of isolated rabbit iliac artery rings constricted with phenylephrine
Format: cell-based
Conditions: Oryctolagus cuniculus, read-out: EC50 of A23187 relaxation (control of charybdotoxin/apamin series)
RECORDED_ENDPOINT: EC50 (nM)

STRUCTURE_SMILES	ASSAY_RESULT
CNc1ccc2oc(C[C@H]3O[C@@]4(CC[C@H]3C)O[C@H]([C@H](C)C(=O)c3ccc[nH]3)[C@H](C)C[C@H]4C)nc2c1C(=O)O	291

---

Tested on: rabbit iliac artery rings
Assay: EDHF-type relaxation of isolated rabbit iliac artery rings constricted with phenylephrine
Assay type: cell-based
Details: Oryctolagus cuniculus; endothelium-intact rings; L-NAME + indomethacin; control of IBMX / 2′,5′-DDA series; read-out: EC50 of EDHF-type relaxation (control)
# Lookup of reported EC50 keyed by entry

COMPOUND	UNIT_STRING	EC50
CC(=O)OCC[N+](C)(C)C [ACh, acetylcholine]	nM	555
CNc1ccc2oc(C[C@H]3O[C@@]4(CC[C@H]3C)O[C@H]([C@H](C)C(=O)c3ccc[nH]3)[C@H](C)C[C@H]4C)nc2c1C(=O)O [A23187]	nM	328
